# tested system: human MDM2 protein (amino acids 2-188) (Homo sapiens, UniProt Q00987)
# Construct: human MDM2 protein (amino acids 2-188); made in house
# Sequence (Q00987 2-188): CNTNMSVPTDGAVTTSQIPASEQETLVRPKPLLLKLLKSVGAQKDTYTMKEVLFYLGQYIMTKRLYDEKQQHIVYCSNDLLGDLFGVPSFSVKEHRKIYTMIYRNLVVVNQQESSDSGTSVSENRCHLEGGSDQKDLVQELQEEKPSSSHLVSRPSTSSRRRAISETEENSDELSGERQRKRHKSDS
# protocol details: p53-MDM2 TR-FRET assay, modified (p53-MDM2 Assay 2)
# Format: binding
# reported conditions: 0.1 nM MDM2, 0.1 nM Europium labeled streptavidin; read-out: IC50 (nM) of p53-Hdm2 inhibition (TR-FRET) Assay 2
Rule: IC50 below 1 nM gives True, anything at or above gives False.

compound: COc1cc2c(cc1OC(C)C)[C@H](c1ccc(Cl)cc1)N(c1ccc(C(C)(O)[C@H]3CCCN(C(=O)OC(C)(C)C)C3)cc1)C(=O)C2 (some centres unmarked)
tested system: human MDM2 protein (amino acids 2-188) (Homo sapiens, UniProt Q00987)
cat: False
//
compound: COc1cc2c(cc1OC(C)C)[C@H](c1ccc(Cl)cc1)N(c1ccc(C(C)(O)C3CC4CCCC(C3)N4C(=O)CO)cc1)C(=O)C2 (some centres unmarked)
tested system: human MDM2 protein (amino acids 2-188) (Homo sapiens, UniProt Q00987)
cat: False
//
compound: [2H]C([2H])([2H])Oc1cc2c(cc1OC(C)C)[C@H](c1ccc(Cl)cc1)N(c1ccc([C@@](C)(O)C3CCS(=O)(=O)CC3)cc1)C(=O)C2 (single isomer, unassigned)
tested system: human MDM2 protein (amino acids 2-188) (Homo sapiens, UniProt Q00987)
cat: False
//
compound: COc1cc2c(cc1OC(C)C)[C@H](c1ccc(Cl)cc1)N(c1ccc([C@@](C)(O)C3CC4CCCC(C3)S4(=O)=O)cc1)C(=O)C2 (some centres unmarked)
tested system: human MDM2 protein (amino acids 2-188) (Homo sapiens, UniProt Q00987)
cat: False

Would you kindly look at the next entry?
Ask: In plain terms, does COc1cc2c(cc1OC(C)C)[C@H](c1ccc(Cl)cc1)N(c1ccc([C@@](C)(O)C3CCN(C(=O)COC(C)=O)CC3)cc1)C(=O)C2 (single isomer, unassigned) come in under 1 nM for IC50?
Result: False

====

# tested system: human MDM2 protein (amino acids 2-188) (Homo sapiens)
# Construct: human MDM2 protein (amino acids 2-188); made in house
# protocol details: p53-MDM2 TR-FRET assay (p53-MDM2 Assay 1)
# Format: binding
# reported conditions: 1.25 nM MDM2-biotinylated, 10 nM Cy5-p53 peptide; read-out: IC50 (μM) of p53-Hdm2 inhibition (TR-FRET) Assay 1
value kind: IC50 (µM)
Supply the numeric figure in µM, leaving out any unit text.

molecule: COc1cc2c(cc1OC(C)C)[C@H](c1ccc(Cl)cc1)N(c1ccc(C(C)(O)C3CCN(C=O)CC3)cc1)C(=O)C2 (stereo partly drawn)
IC50, µM: 0.0028
--
molecule: COc1cc2c(cc1OC(C)C)[C@H](c1ccc(Cl)cc1)N(c1ccc(C3(O)CCCC3)cc1)C(=O)C2
IC50, µM: 0.246
--
molecule: COc1cc2c(cc1OC(C)C)[C@H](c1ccc(Cl)cc1)N(c1ccc(C(C)(O)C3CN(C(=O)CO)C3)cc1)C(=O)C2 (stereo partly drawn)
IC50, µM: 0.0078

Ask: Return IC50 for the following molecule: COc1cc2c(cc1OC(C)C)[C@H](c1ccc(Cl)cc1)N(c1ccc(C(C)(O)c3ccc(NC(C)=O)cc3)cc1)C(=O)C2 (mixture of isomers)
Result: 0.0071

Ask: Return IC50 for the following molecule: COc1cc2c(cc1OC(C)C)[C@H](c1ccc(Cl)cc1)N(c1ccc(C(C)(O)C3CC4CCC(C3)N4C(C)C)cc1)C(=O)C2 (stereo partly drawn)
Result: 0.0049

Ask: Return IC50 for the following molecule: COc1cc2c(cc1OC(C)C)[C@H](c1ccc(Cl)cc1)N(c1ccc([C@@](C)(O)C3CCOCC3)c(F)c1)C(=O)C2 (single isomer, unassigned)
Result: 0.0023

====

# reported IC50; entries follow
# tested system: human MDM4 protein (amino acids 2-185) (Homo sapiens)
# Construct: human MDM4 protein (amino acids 2-185); made in house
# Sequence (O15151 2-185): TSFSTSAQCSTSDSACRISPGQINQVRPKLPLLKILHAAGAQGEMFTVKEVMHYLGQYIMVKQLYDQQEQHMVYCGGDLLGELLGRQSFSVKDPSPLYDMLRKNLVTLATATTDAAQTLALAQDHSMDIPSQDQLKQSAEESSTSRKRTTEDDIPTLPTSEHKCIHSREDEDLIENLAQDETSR
# protocol details: p53-MDM4 TR-FRET assay (p53-MDM4 Assay 1)
# Type: binding
# reported conditions: 2.5 nM MDM4-biotinylated, 10 nM Cy5-p53 peptide; read-out: IC50 (μM) of p53-Hdm4 inhibition (TR-FRET) Assay 1
Supply the numeric figure in µM, leaving out any unit text.

Ask: Recall the reported IC50 of COc1cc2c(cc1OC(C)C)[C@H](c1ccc(Cl)cc1)N(c1ccc(C(C)(O)c3ccccn3)cc1)C(=O)C2 (stereo partly drawn) on human MDM4 protein (amino acids 2-185) (Homo sapiens) and write it down.
Result: 37.2

Ask: Recall the reported IC50 of COc1cc2c(cc1OC(C)C)[C@H](c1ccc(Cl)cc1)N(c1ccc(C(C)(O)C3CN(C(=O)OC(C)(C)C)C3)cc1)C(=O)C2 (stereo partly drawn) on human MDM4 protein (amino acids 2-185) (Homo sapiens) and write it down.
Result: 10.6

Ask: Recall the reported IC50 of COc1cc2c(cc1OC(C)C)[C@H](c1ccc(Cl)cc1)N(c1ccc(C(C)(O)c3ccc(NC(C)=O)cc3)cc1)C(=O)C2 (mixture of isomers) on human MDM4 protein (amino acids 2-185) (Homo sapiens) and write it down.
Result: 10.4

Ask: Recall the reported IC50 of COc1cc2c(cc1OC(C)C)[C@H](c1ccc(Cl)cc1)N(c1ccc(C(C)(O)C3CCN(C(=O)OC(C)C)CC3)cc1)C(=O)C2 (stereo partly drawn) on human MDM4 protein (amino acids 2-185) (Homo sapiens) and write it down.
Result: 7.54

Ask: Recall the reported IC50 of COc1cc2c(cc1OC(C)C)[C@H](c1ccc(Cl)cc1)N(c1ccc(C(C)(O)C3CN(C(C)C)C3)cc1)C(=O)C2 (stereo partly drawn) on human MDM4 protein (amino acids 2-185) (Homo sapiens) and write it down.
Result: 18.4

Ask: Recall the reported IC50 of COc1cc2c(cc1OC(C)C)[C@H](c1ccc(Cl)cc1)N(c1ccc([C@@](C)(O)C3CC[S+]([O-])CC3)cc1)C(=O)C2 (stereo partly drawn) on human MDM4 protein (amino acids 2-185) (Homo sapiens) and write it down.
Result: 4.4

====

# tested system: human MDM2 protein (amino acids 2-188) (Homo sapiens)
# Construct: human MDM2 protein (amino acids 2-188); made in house
# protocol details: p53-MDM2 TR-FRET assay (p53-MDM2 Assay 1)
# Format: binding
# reported conditions: 1.25 nM MDM2-biotinylated, 10 nM Cy5-p53 peptide; read-out: IC50 (μM) of p53-Hdm2 inhibition (TR-FRET) Assay 1
Rule: IC50 below 0.04 µM gives met, anything at or above gives not met.

Examples with answers:
compound: CC(C)Oc1cc2c(cc1OCc1ccccn1)CC(=O)N(c1ccc(C(C)(O)C3CCOCC3)cc1)[C@H]2c1ccc(Cl)cc1 (stereo partly shown) [Example 146]
cat: met

compound: COc1cccc(C(O)c2ccc(N3C(=O)Cc4cc(OC)c(OC(C)C)cc4[C@@H]3c3ccc(Cl)cc3)cc2)c1 (stereo partly shown) [Example 2]
cat: not met

compound: COc1cccc(C(C)(O)c2ccc(N3C(=O)Cc4cc(OC)c(OC(C)C)cc4[C@@H]3c3ccc(Cl)cc3)cc2)c1 (stereo partly shown) [Example 1]
cat: not met

compound: COc1cc2c(cc1OC(C)C)[C@H](c1ccc(Cl)cc1)N(c1ccc(C(C)(O)C3CC(C)(C)OC(C)(C)C3)cc1)C(=O)C2 (stereo partly shown) [Example 162]
cat: met

compound: COc1cc2c(cc1OC(C)C)[C@H](c1ccc(Cl)cc1)N(c1ccc(C(C)(O)c3ccccn3)cc1)C(=O)C2 (stereo partly shown) [Example 18]
cat: met

Ask: In plain terms, does COc1cc2c(cc1OC(C)C)[C@H](c1ccc(Cl)cc1)N(c1ccc(C(C)(O)C3CCNCC3)cc1)C(=O)C2 (stereo partly shown) [Example 43] come in under 0.04 µM for IC50?
Result: met

Ask: In plain terms, does COc1cc2c(cc1OC(C)C)[C@H](c1ccc(Cl)cc1)N(c1ccc(C(C)(O)C3CCOCC3)c(F)c1)C(=O)C2 (mixture of isomers) [Example 35] come in under 0.04 µM for IC50?
Result: met

====

# reported IC50; entries follow
# tested system: human MDM4 protein (amino acids 2-185) (Homo sapiens)
# Construct: human MDM4 protein (amino acids 2-185); made in house
# protocol details: p53-MDM4 TR-FRET assay (p53-MDM4 Assay 1)
# Type: binding
# reported conditions: 2.5 nM MDM4-biotinylated, 10 nM Cy5-p53 peptide; read-out: IC50 (μM) of p53-Hdm4 inhibition (TR-FRET) Assay 1
Supply the numeric figure in µM, leaving out any unit text.

compound: COc1cc2c(cc1OC(C)C)[C@H](c1ccc(Cl)cc1)N(c1ccc(C(C)(C)O)cc1)C(=O)C2
IC50 (µM): 51.6
//
compound: COc1cc2c(cc1OC(C)C)[C@H](c1ccc(Cl)cc1)N(c1ccc(C(C)(O)C3CCN(C)CC3)cc1)C(=O)C2 (mixture of isomers)
IC50 (µM): 5.23
//
compound: COc1cc2c(cc1OC(C)C)[C@H](c1ccc(Cl)cc1)N(c1ccc(C(C)(O)C3CC4CCC(C3)S4(=O)=O)cc1)C(=O)C2 (mixture of isomers)
IC50 (µM): 8.05
//
compound: COc1cc2c(cc1OC(C)C)[C@H](c1ccc(Cl)cc1)N(c1ccc(C(C)(O)c3ccc(NC(C)=O)cc3)c(F)c1)C(=O)C2 (stereo partly shown)
IC50 (µM): 9.7
//
compound: COc1cc2c(cc1OC(C)C)[C@H](c1ccc(Cl)cc1)N(c1ccc(C3(O)CCCC3)cc1)C(=O)C2
IC50 (µM): 90.2
//
compound: COc1cccc(C(O)c2ccc(N3C(=O)Cc4cc(OC)c(OC(C)C)cc4[C@@H]3c3ccc(Cl)cc3)cc2)c1 (stereo partly shown)
IC50 (µM): 87
//
compound: COc1cc2c(cc1OC(C)C)[C@H](c1ccc(Cl)cc1)N(c1ccc(C(C)(O)c3cccnc3)cn1)C(=O)C2 (stereo partly shown)
IC50 (µM): 61.1
//
compound: COc1cc(OC)cc(C(C)(O)c2ccc(N3C(=O)Cc4cc(OC)c(OC(C)C)cc4[C@@H]3c3ccc(Cl)cc3)cc2)c1 (stereo partly shown)
IC50 (µM): 21.7
//
compound: COc1cc2c(cc1OC(C)C)[C@H](c1ccc(Cl)cc1)N(c1ccc(C(C)(O)C3CN(C(=O)N(C)C)C3)cc1)C(=O)C2 (stereo partly shown)
IC50 (µM): 15
//
compound: COc1ccc(C(C)(O)c2ccc(N3C(=O)Cc4cc(OC)c(OC(C)C)cc4[C@@H]3c3ccc(Cl)cc3)cc2)cn1 (stereo partly shown)
IC50 (µM): 24.7

Ask: Return IC50 for the following compound: COc1cc2c(cc1OC(C)C)[C@H](c1ccc(Cl)cc1)N(c1ccc(C(C)(O)C3CCN(C(=O)NC(C)C)CC3)cc1)C(=O)C2 (stereo partly shown)
Result: 5.91

Ask: Return IC50 for the following compound: COc1cc2c(cc1OC(C)C)[C@H](c1ccc(Cl)cc1)N(c1ccc(C(C)(O)C3CCN(C(C)=O)CC3)cc1)C(=O)C2 (stereo partly shown)
Result: 2.31

Ask: Return IC50 for the following compound: COc1cc2c(cc1OC(C)C)[C@H](c1ccc(Cl)cc1)N(c1ccc(C(C)(O)C3CCN(C(=O)C(F)F)CC3)cc1)C(=O)C2 (stereo partly shown)
Result: 23.9

Where do the numbers come from? From patent US8859535B2.
